Record: A50 reported on Estrogen receptor (Rattus norvegicus) (UniProt P06211+Q62986).
measured_endpoint: A50 (nM)

In the examples that follow, each entry is paired with its recorded A50.
CC/C(=C(/c1ccc(O)cc1)c1ccc(F)cc1)c1ccccc1	670
CC/C(=C(\c1ccc(N)cc1)c1ccc(OCCN(C)C)cc1)c1ccccc1	20

I: CC/C(=C(/c1ccc(O)cc1)c1ccc(NC(C)=O)cc1)c1ccccc1
II: CC/C(=C(\c1ccc(F)cc1)c1ccc(OCCN(C)C)cc1)c1ccccc1
Challenge: Of I versus II , which is the one with smaller reported A50? // respond with label for picked entry
Response given: I
